- Target of assay: human PR-B (Homo sapiens, UniProt P06401)
- Construct: expressed in transfected cells; host or cells: CV-1 cells (African green monkey kidney fibroblasts), transient transfection
- Sequence (P06401 whole entry): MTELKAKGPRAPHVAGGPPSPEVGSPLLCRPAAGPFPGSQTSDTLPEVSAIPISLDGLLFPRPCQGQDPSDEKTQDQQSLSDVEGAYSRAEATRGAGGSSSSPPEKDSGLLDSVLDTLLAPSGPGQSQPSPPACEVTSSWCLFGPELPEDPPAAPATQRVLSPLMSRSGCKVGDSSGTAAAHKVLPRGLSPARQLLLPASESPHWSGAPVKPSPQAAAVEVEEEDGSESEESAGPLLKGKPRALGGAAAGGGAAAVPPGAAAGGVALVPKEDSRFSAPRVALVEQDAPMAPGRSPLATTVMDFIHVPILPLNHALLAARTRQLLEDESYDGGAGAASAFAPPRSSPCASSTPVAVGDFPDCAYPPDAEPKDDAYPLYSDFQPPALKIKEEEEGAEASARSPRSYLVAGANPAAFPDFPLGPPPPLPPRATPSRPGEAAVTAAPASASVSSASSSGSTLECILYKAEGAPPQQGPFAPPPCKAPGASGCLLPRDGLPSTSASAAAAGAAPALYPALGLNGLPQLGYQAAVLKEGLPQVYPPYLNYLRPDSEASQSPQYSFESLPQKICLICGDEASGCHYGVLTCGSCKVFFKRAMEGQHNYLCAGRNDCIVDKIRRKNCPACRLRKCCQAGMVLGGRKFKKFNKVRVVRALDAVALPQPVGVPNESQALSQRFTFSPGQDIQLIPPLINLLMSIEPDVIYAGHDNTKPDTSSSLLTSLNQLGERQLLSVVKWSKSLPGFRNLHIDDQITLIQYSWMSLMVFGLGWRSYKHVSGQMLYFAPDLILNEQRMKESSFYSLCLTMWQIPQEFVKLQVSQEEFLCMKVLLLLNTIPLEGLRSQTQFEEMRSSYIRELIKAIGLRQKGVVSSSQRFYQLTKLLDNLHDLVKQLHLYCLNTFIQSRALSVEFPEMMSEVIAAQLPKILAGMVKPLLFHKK
- Test protocol: Co-transfection assay, PR agonist and antagonist activity, CV-1 cells
- Type: cell-based

{"Compound": "CC1=CC(C)(C)Nc2ccc(-c3cccc([N+](=O)[O-])c3)c(Cl)c21 [Compound 310]", "PR Antagonist CV-1 Cells Efficacy (%)": 70}
{"Compound": "CC1(C)Nc2ccc3c(c2C(=O)C1(C)C)C(c1ccc(Cl)cc1)Oc1ccccc1-3 (racemic) [Compound 379]", "PR Antagonist CV-1 Cells Efficacy (%)": 87}
{"Compound": "CC1C(=O)C(C)(C)Nc2ccc(-c3cc(F)cc(C#N)c3)cc21 (stereo not shown) [Compound 286]", "PR Antagonist CV-1 Cells Efficacy (%)": 84}
{"Compound": "CC1=CC(C)(C)Nc2ccc3c(c21)COc1c(Cl)cccc1-3 [Compound 331]", "PR Antagonist CV-1 Cells Efficacy (%)": 88}
{"Compound": "CC1=CC(C)(C)Nc2ccc(-c3cc(F)cc(C#N)c3)cc21 [Compound 271]", "PR Antagonist CV-1 Cells Efficacy (%)": 78}
{"Compound": "CCCO[C@@H]1[C@@H](C)c2c(ccc3c2[C@H](c2ccc(Cl)cc2)Oc2ccccc2-3)NC1(C)C (racemic) [Compound 400]", "PR Antagonist CV-1 Cells Efficacy (%)": 68}
{"Compound": "CC1=CC(C)(C)Nc2c(F)cc(-c3cccc([N+](=O)[O-])c3)cc21 [Compound 291]", "PR Antagonist CV-1 Cells Efficacy (%)": 79}
{"Compound": "CC1=CC(C)(C)Nc2ccc(-n3cnc(Cl)c3Cl)cc21 [Compound 103]", "PR Antagonist CV-1 Cells Efficacy (%)": 91}
{"Compound": "CC1CC(C)(C)Nc2ccc(-c3cc(F)cc(C#N)c3)cc21 (racemic) [Compound 455]", "PR Antagonist CV-1 Cells Efficacy (%)": 76}

====

- Target of assay: human PR-B (Homo sapiens, UniProt P06401)
- Construct: expressed in transfected cells; host or cells: CV-1 cells (African green monkey kidney fibroblasts), transient transfection
- Test protocol: Co-transfection assay, PR agonist and antagonist activity, CV-1 cells;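 note: luciferase reporter driven by a hormone response element, co-transfected with human PR-B into CV-1 monkey kidney cells, agonists raise and antagonists lower the reporter signal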
- Assay type: cell-based
- Measurement conditions: read-out: PR Antagonist CV-1 Cells Potency

{"Compound": "CC1C(=O)C(C)(C)Nc2ccc3c(c21)/C(=C/c1cccc(F)c1)Oc1ccccc1-3 (racemic)", "Units text": "nM", "Inequality symbol": ">", "IC50": 10000}
{"Compound": "CC1=CC(C)(C)Nc2ccc3c(c21)C(c1ccc(Cl)cc1)Oc1ccccc1-3 (racemic)", "Units text": "nM", "Inequality symbol": "=", "IC50": 3620}
{"Compound": "CC1(C)C=Cc2c(ccc3c2/C(=C/c2ccccc2)Oc2ccc(Cl)cc2-3)N1", "Units text": "nM", "Inequality symbol": ">", "IC50": 10000}
{"Compound": "CC1=CC(C)(C)Nc2ccc(-c3nn(C)cc3Br)cc21", "Units text": "nM", "Inequality symbol": "=", "IC50": 120}
{"Compound": "CC1=CC(C)(C)Nc2ccc3c(c21)C(c1ccccc1)Oc1ccccc1-3 (racemic)", "Units text": "nM", "Inequality symbol": "=", "IC50": 209}
{"Compound": "CC1=CC(C)(C)Nc2ccc(-n3cnc(Cl)c3Cl)cc21", "Units text": "nM", "Inequality symbol": "=", "IC50": 780}
{"Compound": "CCCO[C@@H]1[C@@H](C)c2c(ccc3c2[C@H](c2ccc(Cl)cc2)Oc2ccccc2-3)NC1(C)C (racemic)", "Units text": "nM", "Inequality symbol": "=", "IC50": 370}
{"Compound": "CC1(C)C=Cc2c(ccc3c2c(=O)oc2ccc(Cl)cc23)N1", "Units text": "nM", "Inequality symbol": "=", "IC50": 140}
